Reference for the values: patent US20190119282A1

Tested target: PAR2 (HT-29 cells, trypsin activation) (Homo sapiens, UniProt P55085)
Construct: host or cells: HT-29 cells
Sequence (P55085 26-397): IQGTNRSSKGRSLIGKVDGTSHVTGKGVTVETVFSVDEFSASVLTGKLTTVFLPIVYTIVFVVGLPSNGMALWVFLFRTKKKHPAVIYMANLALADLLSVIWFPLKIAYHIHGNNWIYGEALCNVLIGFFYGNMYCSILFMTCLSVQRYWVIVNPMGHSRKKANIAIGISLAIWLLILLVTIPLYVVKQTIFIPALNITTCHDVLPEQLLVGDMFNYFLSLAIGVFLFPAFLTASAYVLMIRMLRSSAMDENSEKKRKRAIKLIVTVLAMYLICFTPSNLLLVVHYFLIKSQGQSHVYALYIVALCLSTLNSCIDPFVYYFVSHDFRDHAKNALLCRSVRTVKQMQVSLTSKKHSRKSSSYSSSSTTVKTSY
Assay overview: Ca FLIPR TETRA assay, ANTAGONIST mode, stimulation with 3.1 U/mL trypsin
Type: cell-based
Reported conditions: HT-29 cells, stimulation with 3.1 U/mL trypsin
Returns: string. Value is true (1) if measured IC50 is below 20 nM, and false (0) if it is greater than or equal to it.

Example results:
molecule=CC(C)c1cc(-c2ccc(F)cc2)nn2cc(C(=O)N3CCN(C(=O)[C@H](O)C(C)C)[C@@H](C)C3)nc12 assigned_category="true (1)"
molecule=C[C@H]1CN(C(=O)c2cn3nc(-c4ccc(F)cc4)cc(C(F)(F)F)c3n2)CCN1C(=O)Cc1ccccc1 assigned_category="false (0)"
molecule=CCOC(=O)[C@@H]1CCCN(C(=O)c2cn3nc(-c4ccc(F)cc4)cc(C(F)(F)F)c3n2)[C@@H]1C assigned_category="false (0)"
molecule=CC(C)c1cc(-c2ccc(F)cc2)nn2cc(C(=O)N3CCN(C(=O)[C@@H](O)C(C)C)[C@@H](C)C3)nc12 assigned_category="false (0)"

Below 20 nM on IC50? Entry C[C@H](O)C(=O)N1CCN(C(=O)c2cn3nc(-c4ccc(F)cc4)cc(C4(C)CC4)c3n2)C(C)(C)C1
false (0)

Continue with C[C@H]1CN(C(=O)c2cn3nc(-c4ccc(F)cc4)cc(C(F)(F)F)c3n2)CCN1C(=O)C(O)c1cccnc1 (some centres unmarked)
false (0)

###

For each record, write down the corresponding IC50.
Tested target: PAR2 (HT-29 cells, trypsin activation) (Homo sapiens, UniProt P55085)
Construct: host or cells: HT-29 cells
Assay overview: Ca FLIPR TETRA assay, ANTAGONIST mode, stimulation with 3.1 U/mL trypsin
Type: cell-based
Reported conditions: HT-29 cells, stimulation with 3.1 U/mL trypsin
Give bare numbers, in µM.

See these solved cases before continuing.
compound=CC(C)c1cc(-c2ccc(F)cc2)nn2cc(C(=O)N3CCN(C(=O)CCn4cccn4)[C@@H](C)C3)nc12 unit_symbol=µM recorded_value=0.22
compound="CC(C)c1cc(-c2ccc(F)cc2)nn2cc(C(=O)N3CCN(C(=O)C(O)Cc4ccccc4)[C@@H](C)C3)nc12 (stereo partly shown)" unit_symbol=µM recorded_value=0.003
compound=CCc1cc(-c2ccc(F)cc2)nn2cc(C(=O)N3CCN(C(=O)[C@H](O)CC4CC4)[C@@H](C)C3)nc12 unit_symbol=µM recorded_value=0.038
compound=CC(C)c1cc(-c2ccc(F)cc2)nn2cc(C(=O)N3CCN(C(=O)[C@H](O)C(C)(C)C)[C@@H](C)C3)nc12 unit_symbol=µM recorded_value=0.054
compound=CC(C)c1cc(C2=CCOCC2)nn2cc(C(=O)N3CCN(C(=O)C4(O)CCC4)CC3(C)C)nc12 unit_symbol=µM recorded_value=9.5

Record IC50 per entry; entries follow.
1. Cc1cc(-c2ccc(F)cc2)nn2cc(C(=O)N3CCN(C(=O)OC(C)(C)C)[C@@H](C)C3)nc12
2. CC1CN(C(=O)c2cn3nc(-c4ccc(F)cc4)cc(C(F)(F)F)c3n2)CCCN1C(=O)OC(C)(C)C (stereo not shown)
3. CC(C(=O)NC1CC1)N1CCN(C(=O)c2cn3nc(-c4ccc(F)cc4)cc(C(F)(F)F)c3n2)CC1 (stereo not shown)

2.4
12
3.1

Record IC50 per entry; entries follow.
1. Cc1noc(C)c1CCC(=O)N1CCN(C(=O)c2cn3nc(-c4ccc(F)cc4)cc(C(C)C)c3n2)C[C@@H]1C
2. Cc1cc(-c2ccc(F)cc2)nn2cc(C(=O)N3CCN(C(=O)[C@H](O)CC(C)(C)C)[C@@H](C)C3)nc12
3. CC(C)C(O)C(=O)N1CCN(C(=O)c2cn3nc(-c4ccc(F)cc4)cc(C4CC4)c3n2)C(C)(C)C1 (stereo not shown)
4. CC(C)C[C@@H](O)C(=O)N1CCN(C(=O)c2cn3nc(-c4ccc(F)cc4)cc(C(C)C)c3n2)C[C@@H]1C

[0.034, 0.11, 0.014, 0.0008]

Record IC50 per entry; entries follow.
1. CC1(c2cc(-c3ccc(F)cc3)nn3cc(C(=O)N4CCN(C(=O)C5(O)CCC5)CC4(C)C)nc23)CC1
2. CC(C)c1cc(Cl)nn2cc(C(=O)N3CCN(C(=O)OC(C)(C)C)CC3(C)C)nc12
3. C[C@H]1CN(C(=O)c2cn3nc(-c4ccc(F)cc4)cc(C(F)(F)F)c3n2)CCN1C(=O)OCc1cccnc1
4. CC1(C)C(=O)NCCN1C(=O)c1cn2nc(-c3ccc(F)cc3)cc(C3CCOCC3)c2n1

1. 0.014
2. 6.8
3. 0.49
4. 0.39

Record IC50 per entry; entries follow.
1. CC(C)(C)OC(=O)N1CCCN(C(=O)c2cn3nc(-c4ccc(F)cc4)cc(C(F)(F)F)c3n2)CC1
2. CC(C)(O)C(=O)N1CCN(C(=O)c2cn3nc(-c4ccc(F)cc4)cc(C(F)(F)F)c3n2)C(C)(C)C1
3. CCC1(C)C(=O)NCCN1C(=O)c1cn2nc(-c3ccc(F)cc3)cc(C(C)C)c2n1 (stereo not shown)
4. C[C@H]1CN(C(=O)c2cn3nc(-c4ccc(F)cc4)cc(C(F)(F)F)c3n2)CCN1C(=O)C1CCCCC1
5. C[C@H]1CN(C(=O)c2cn3nc(-c4ccc(F)cc4)cc(C(F)(F)F)c3n2)CCN1C(=O)[C@@H]1CCCO1
6. CC(C)c1cc(-c2ccc(F)cc2)nn2cc(C(=O)N3CCN(C(=O)C4(O)CCC4)C[C@H]3C)nc12
7. CC(C)c1cc(-c2ccc(F)cc2)nn2cc(C(=O)N3CCN(CC(C)(C)O)C(=O)C3(C)C)nc12

[1.8, 0.24, 0.011, 0.6, 10, 8.3, 0.041]

Record IC50 per entry; entries follow.
1. CCNC(=O)OC1CCN(C(=O)c2cn3nc(-c4ccc(F)cc4)cc(C)c3n2)CC1
2. CC(C)c1cc(-c2ccc(F)cc2)nn2cc(C(=O)N3CCN(C(=O)CC(C)(C)C)[C@@H](C)C3)nc12
3. CC(C)c1cc(-c2ccc(F)cc2)nn2cc(C(=O)N3CCN(C(=O)CC4CCOC4)[C@@H](C)C3)nc12 (stereo partly shown)
4. CCc1cc(-c2ccc(F)cc2)nn2cc(C(=O)N3CCN(C(=O)[C@H](O)C(C)C)[C@@H](C)C3)nc12

1: 4.1; 2: 0.006; 3: 0.33; 4: 0.35
